Test system: DU-145 prostate
Experiment: NCI tumour cell line growth inhibition, 48 h
Listed next: entries and their corresponding TGI.
readout.type: TGI

molecule: NC(N)=NCC[C@H](NC(=O)OCCCCCn1ccc(=O)[nH]c1=O)C(=O)O
assayed.target: DU-145 prostate
readout.type: TGI
result: > 100 µM
//
molecule: c1cnn2ncc(-c3ccnc(NCCCN4CCOCC4)n3)c2c1
assayed.target: DU-145 prostate
readout.type: TGI
result: > 25 µM
//
molecule: COc1cc2c(cc1OCCCn1c(-c3ccccn3)nc3ccccc31)N=C[C@@H]1CCCN1C2=O
assayed.target: DU-145 prostate
readout.type: TGI
result: 6.72 µM
//
molecule: COCc1nc(N)nc(N2N=C(C)CC2(C)C)n1
assayed.target: DU-145 prostate
readout.type: TGI
result: > 100 µM
//
molecule: OCC1OC(n2cnc3c(N/N=C\c4ccccn4)ncnc32)C(O)C1O (centres undefined)
assayed.target: DU-145 prostate
readout.type: TGI
result: 10.1 µM
//
molecule: O=C1OCC2OC(=O)c3cc(O)c(O)c(O)c3-c3c(O)c(O)c(O)c4c3C(=O)OC(C2OC(=O)c2cc(O)c(O)c(O)c2-c2c1cc(O)c(O)c2O)C1OC(=O)c2c-4c(O)c(O)c(O)c2[C@@H]1C(O)C(O)C(O)C(O)CO (some centres undefined)
assayed.target: DU-145 prostate
readout.type: TGI
result: 47.5 µM
//
molecule: OCc1ccc(N2CCCC2c2ccccc2)cc1Cl (centres undefined)
assayed.target: DU-145 prostate
readout.type: TGI
result: 30.8 µM
//
molecule: O=C(O)c1ccc(C(=O)c2ccccc2)c(C(=O)O)c1
assayed.target: DU-145 prostate
readout.type: TGI
result: > 100 µM
//
molecule: CCCc1c(-c2ccccc2)[nH]c2ccccc2c1=O
assayed.target: DU-145 prostate
readout.type: TGI
result: > 100 µM

* * *

System: A498 renal
Test: NCI tumour cell line growth inhibition, 48 h; in the data active means GI50 below about 0.43 µM; inactive means the rest
Possible outcomes: active, inactive

molecule: Fc1ccc(/C=N/n2c(-c3ccc(F)c(Cl)c3)nn(CNc3ccccc3C(F)(F)F)c2=S)cc1
assayed.target: A498 renal
class: inactive
--
molecule: CC(=O)/C=C/c1cn(C(=O)OC(C)(C)C)c2ccc(Br)cc12
assayed.target: A498 renal
class: inactive
--
molecule: CCCCCCCCCCCCCCCCCC1=NCCN1CCOC1=C(Cl)C(=O)c2ccccc2C1=O
assayed.target: A498 renal
class: inactive
--
molecule: FC(F)(F)c1ccc(-c2cnc(-c3ncon3)nc2NC2CCCCCC2)cc1
assayed.target: A498 renal
class: inactive
--
molecule: O=C1c2cccnc2C(=O)c2c1c(C(=O)NCCCN1CCCCC1)c1ccccn21
assayed.target: A498 renal
class: inactive
--
molecule: COc1ccc2cc1Oc1ccc(cc1)C[C@H]1c3c(cc4c(c3Oc3cc5c(cc3OC)CCN(C)[C@@H]5C2)OCO4)CCN1C
assayed.target: A498 renal
class: inactive
--
molecule: O=C1CCC(N2Cc3cc(CNC(=O)C(F)(F)c4ccc(Cl)cc4)ccc3C2=O)C(=O)N1 (stereo not drawn)
assayed.target: A498 renal
class: inactive
--
molecule: CN(C)CCCn1c(=O)c2ccccc2c2ccccc21
assayed.target: A498 renal
class: inactive
--
molecule: O=C1OCC2=C1C(c1ccccc1)c1cc3c(cc1N2)OCO3 (stereo not drawn)
assayed.target: A498 renal
class: active
--
molecule: CC(C)C[C@H](NC(=O)CNC(=O)c1cc(Cl)ccc1Cl)B1OC(=O)CC(CC(=O)O)(C(=O)O)O1 (stereo partly drawn)
assayed.target: A498 renal
class: active
--
molecule: O=c1[nH]c(=O)n(C2CC(O)C(COP(=O)(OCc3ccc([N+](=O)[O-])o3)N(CCCCCl)CC(O)CO)O2)cc1F (stereo not drawn)
assayed.target: A498 renal
class: active
--
molecule: O=C1C(=C([O-])c2ccccc2)C(=O)c2ccccc21.O=C1C(=C([O-])c2ccccc2)C(=O)c2ccccc21.[Fe+2]
assayed.target: A498 renal
class: inactive
--
molecule: N#Cc1c(N2CCOCC2)nc(=S)[nH]c1-c1ccco1
assayed.target: A498 renal
class: inactive
--
molecule: O=C1NC(=O)C(N2C(=O)c3ccccc3C2=O)CC1O (stereo not drawn)
assayed.target: A498 renal
class: inactive
--
molecule: C1CCC([PH+](C2CCCCC2)C2CCCCC2[PH+](C2CCCCC2)C2CCCCC2)CC1.[Au].[CH-]1CCCCC1CC1CCCC[N-]1 (stereo not drawn)
assayed.target: A498 renal
class: active
--
molecule: Cc1cc(S(=O)(=O)/N=C(/N)Nc2ccccc2O)c(SCc2ccccc2)cc1Cl
assayed.target: A498 renal
class: inactive
--
molecule: CN[C@@H](C)C(=O)N[C@H](C(=O)N1CCC[C@H]1C(=O)Nc1sc(-c2ncco2)nc1-c1ccccc1)C1CCCCC1
assayed.target: A498 renal
class: inactive
--
molecule: CN1CCN(C(=O)c2cc(-c3ccc4ncnc(N5CCc6cc(F)c(Cl)cc65)c4c3)cnc2N)CC1
assayed.target: A498 renal
class: active

* * *

Test system: HL-60(TB) leukemia
Assay: NCI tumour cell line growth inhibition, 48 h
readout.type: TGI (µM)

compound: C/C(=N\Nc1ccc([N+](=O)[O-])cc1[N+](=O)[O-])c1sc(-n2nc(-c3ccccc3)cc2-c2ccccc2)nc1C
readout.type: TGI
value.comparator: =
recorded.number: 44.5
--
compound: O=C(NNCC(O)COc1ccccc1)c1ccccc1 (stereo not given)
readout.type: TGI
value.comparator: >
recorded.number: 100
--
compound: N#Cc1sc2c(c1OC(=O)c1ccccc1)c(=O)n(-c1ccccc1)c(=S)n2-c1ccccc1
readout.type: TGI
value.comparator: =
recorded.number: 61.4
--
compound: COC1=CC(=O)C2=C(C1=O)[C@H]1CC[C@]3(C)[C@@H](O)CC[C@H]3[C@@H]1CC2
readout.type: TGI
value.comparator: =
recorded.number: 46.5
--
compound: CN1c2ccccc2C(=O)NC12CCN(CCCC(=O)c1ccc(F)cc1)CC2
readout.type: TGI
value.comparator: >
recorded.number: 100

* * *

Tested on: RXF 393 renal
Assay: NCI tumour cell line growth inhibition, 48 h
Listed next: entries and their corresponding TGI.
readout.type: TGI (µM)

compound: COc1ccc(C(=O)/C=C/c2ccc(O)c(O)c2)c(OC)c1
readout.type: TGI
value.comparator: =
recorded.number: 39.2
//
compound: CC/C=C\C/C=C\C/C=C\CCCCCCCC(=O)OCC(O)CO (stereo not given)
readout.type: TGI
value.comparator: >
recorded.number: 100
//
compound: Cc1c(/C=N/N=C/c2[nH]c(C(=O)OC(C)(C)C)c(C)c2C)[nH]c(C(=O)OC(C)(C)C)c1C
readout.type: TGI
value.comparator: >
recorded.number: 100
//
compound: CCCCCCCCCCCCCCCCCC1=NCCN1CCOC1=C(Cl)C(=O)c2ccccc2C1=O
readout.type: TGI
value.comparator: =
recorded.number: 3.2
//
compound: C/C(=C\c1ccc2ccccc2c1)[N+](=O)[O-]
readout.type: TGI
value.comparator: =
recorded.number: 3.06

* * *

Tested on: OVCAR-8 ovarian
Experiment: NCI tumour cell line growth inhibition, 48 h; in the data active = GI50 below about 0.43 µM; inactive = the rest
Possible outcomes: active, inactive

compound: O=C1OCC2=C1C(c1ccc(Cl)c(Cl)c1)c1cc3c(cc1N2CCO)OCCO3 (stereo unspecified)
class: active
--
compound: O=C(OCc1ccc2ccccc2n1)c1cn(C2CC2)c2cc(N3CCN(Cc4ccc5ccccc5n4)CC3)c(F)cc2c1=O
class: inactive
--
compound: COc1ccc(-c2[nH]c3ccccc3c2-c2ccc(OC)cc2)cc1
class: inactive
--
compound: O=C1c2cccnc2C(=O)c2c1c(C(=O)NCCCN1CCCCC1)c1ccccn21
class: inactive
--
compound: COc1cccc(OC(=O)c2ccc(C(F)(F)F)nc2Nc2cc(Cl)ccc2C)c1
class: inactive
--
compound: NC(=O)c1csc(C2OC(CO)C(O)C2O)n1 (stereo unspecified)
class: inactive
--
compound: O=C(/C=C/c1cc2ccccc2[nH]c1=O)/C=C/c1cc2ccccc2[nH]c1=O
class: inactive
--
compound: O=C1/C(=C/c2ccccc2[N+](=O)[O-])Cc2ccccc21
class: inactive
--
compound: CCCN(CCS(C)(=O)=O)Cc1ccc(-c2ccc3ncnc(Nc4ccc(OCc5cccc(F)c5)c(Cl)c4)c3c2)o1
class: inactive
--
compound: O=C(/C=C\c1cccc([N+](=O)[O-])c1)/C=C/c1cccc([N+](=O)[O-])c1
class: inactive
--
compound: CN(C)CCCn1c(=O)c2ccccc2c2ccccc21
class: inactive

* * *

Tested on: SNB-19 CNS
Experiment: NCI tumour cell line growth inhibition, 48 h; in the data active means GI50 below about 0.43 µM; inactive means the rest
Possible outcomes: active, inactive

compound: CO[C@H]1CC(O[C@@H]2/C(C)=C/C[C@@H]3C[C@@H](C[C@]4(C=C[C@H](C)[C@@H](C5CCCCC5)O4)O3)OC(=O)[C@@H]3C=C(C)[C@@H](O)[C@H]4OC/C(=C\C=C\[C@@H]2C)[C@]43O)O[C@@H](C)C1O[C@H]1C[C@H](OC)[C@@H](O)[C@H](C)O1 (stereo partly drawn)
assayed.target: SNB-19 CNS
class: inactive

compound: O=C(/C=C\c1cccc([N+](=O)[O-])c1)/C=C/c1cccc([N+](=O)[O-])c1
assayed.target: SNB-19 CNS
class: inactive

compound: CC(=O)/C=C/c1cn(C(=O)OC(C)(C)C)c2ccc(Br)cc12
assayed.target: SNB-19 CNS
class: inactive

compound: O=S(=O)(Nc1cc(Sc2cccc3cccnc23)c(O)c2ccccc12)c1ccc(F)cc1
assayed.target: SNB-19 CNS
class: inactive

compound: Cc1ccc(/C=N\NC(=O)c2[nH]c3ccc(F)cc3c2-c2ccccc2)cc1
assayed.target: SNB-19 CNS
class: active

compound: CN=c1ccc2nc3ccc(N)cc3sc-2c1
assayed.target: SNB-19 CNS
class: inactive

compound: COc1cc2nc(N3CCCC3)nc(NCCc3ccccc3)c2cc1OC
assayed.target: SNB-19 CNS
class: inactive

compound: CC(=O)OC12C=C(C)C(C(C)C1)C1C(=O)N(CCN3CCOCC3)C(=O)C12 (stereo not drawn)
assayed.target: SNB-19 CNS
class: inactive
